Sourced from patent US20180009892A1

molecular target: T1, ROR1 extracellular domain Fc-fusion, dimer (human, UniProt Q01973 30-406); assay: SPR, immobilised ROR1 dimer, antibody injected, 1:1 model; apparent affinity
T1 construct: also called ROR1 dimer; hROR1 dimeric ECD-Fc fusion protein; not shown: Fc part
T1 sequence (Q01973 30-406): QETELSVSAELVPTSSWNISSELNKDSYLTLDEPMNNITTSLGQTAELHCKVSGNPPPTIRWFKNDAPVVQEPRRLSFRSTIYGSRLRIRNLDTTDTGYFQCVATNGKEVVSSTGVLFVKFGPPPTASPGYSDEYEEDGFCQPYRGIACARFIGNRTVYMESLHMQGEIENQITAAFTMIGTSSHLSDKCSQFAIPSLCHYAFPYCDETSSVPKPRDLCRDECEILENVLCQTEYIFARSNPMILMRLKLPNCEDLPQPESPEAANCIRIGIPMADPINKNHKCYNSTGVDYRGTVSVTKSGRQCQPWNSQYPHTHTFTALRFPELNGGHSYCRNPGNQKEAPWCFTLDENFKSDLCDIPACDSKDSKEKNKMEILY
Parameter Kd: see the listing below.
Give a bare numeral; the unit nM is implied.

Below, each entry is followed by its recorded Kd result.
{"columns": ["binder", "Kd (nM)"],
 "data": [
  ["Antibody 601-149 (antibody, V domains shown) VH: EAQLVESGGGLVKPGGSLRLSCAASGFTFSDYYMGWVRQAPGKGLKWLSYISDRAHTIYDTDSVKGRFTISRDDAKSSLYLRMNNLRVEDTAVYYCARAVGAGEGFDYWGQGTLVTVSS VL: DIQLTQSPSSLSASVGDRVTITCQASQDVRNYLNWYQQKPGKAPNLLIYDATNLESGVPSRFSGSGSGTDFTFTISSLQPEDFATYYCQQYDNLPLSFGGGTKVEIK", 0.1],
  ["Antibody 601-13 (antibody, V domains shown) VH: EVQLVQSGAEVKKPGSSVKVSCKASGGTFSTFAINWVRQAPGQGLEWMGGVIPVSGTEDYSQKFQGRLSLTADESTGTAYMELSSLRSDDTAVYYCARDRSGRDWDYFDYWGQGTLVTVSS VL: DIVMTQSPSSLSASVGDRVTITCQASQDISNYLNWYQQKPGKAPKLLIYDASNLETGVPSRFSGSGSGTDFIFTISSLQPEDIATYYCQQFDNLPYTFGQGTKVEIKR", 0.5]
]}

Attention now shifts to the item below.
Exercise: Suppose we examine the binder Antibody 601-4 (antibody, V domains shown) VH: EVQLVQSGPGLVKPSGTLSLTCAVSGGSISSSNWWSWVRQPPGKGLEWIGEIYHSGSTNYNPSLKSRVTISVDKSKNQFSLKLGSVTAADTATYYCARDLWLGEWDLWGQGTLVTVSS VL: QSVLTQPPSASGAPGQRVTISCSGGISNVGTNGVNWYQHLPGTAPKLLVDAMNQRPSGVPDRFSGSRSGTSGSLAITGLRSEDEADYYCATWDDSLSGVLFGGGTKLTVLG ; what Kd value has been reported?
Solution: 0.2
